Tested on: MS2 coat protein
protocol_details: apparent KD of MS2 coat protein; designed switch direction (-1 OFF switch, 1 ON switch): -1; higher = weaker reporter binding
test_context: input ligand: FMN 200 uM
sequences and their reported apparent KD of MS2 coat protein
measured_property: apparent KD of MS2 coat protein (nM)

sequence_data	test_target	measured_property	reported_result
UAUUAGCAAGCGAGAUCCCACAUGAGGAUCACCCAUGUGCUCGUCUUAAGCCCAGAAUUACUGGGCGCUCGUCUUAU [Winner reversed engineered 20] (Eterna round: R97, puzzle: Sensor, turn-off variant 1)	MS2 coat protein	apparent KD of MS2 coat protein	13.1
ACAUGAGGAUCACCCAUGUACACGUAAUGGCUCAUGUAGAGUGAGGAUAUGUGAGACGAACGAGCACAGAAGGCACAAGACUGG [Deportation 11 - Jieux - Exclusion NG 3] (Eterna round: R96, puzzle: Exclusion NG 3)	MS2 coat protein	apparent KD of MS2 coat protein	36.1
UAAAAUAAACAUGAGGAUCACCCAUGUGAAUGGACUCCUCGGGAGGAUAUUCUGCUUAAAGGUCAGGAGAAGGCCCAUUGCAAU [Isinza] (Eterna round: R96, puzzle: Exclusion NG 3)	MS2 coat protein	apparent KD of MS2 coat protein	545

====

Tested on: MS2 coat protein
protocol_details: apparent KD of MS2 coat protein; designed switch direction (-1 OFF switch, 1 ON switch): 1; higher = weaker reporter binding
test_context: Eterna round: R95; input ligand: microRNA oligo, concentration not stated
Note to self: class labels come from recorded apparent KD of MS2 coat protein, ranges listed here: lower bin (below 20 nM), middle bin (20 nM to below 60 nM), upper bin (60 nM or more)

sequence_data	assigned_category
UGUUAACAUGAGGAUCACCCAUGUCAAAAGAAUCGAGGAUAUGGUAAGUAAUAAGAGAAUCUAGAAGGCGAAGUUG [Altered State 1-24 - Jieux - Same State 1] (puzzle: Same State 1)	middle bin
AGCUAUCGAAAACGAUAGCAAAAGCAUGUACAUGAGGAUCACCCAUGUCAUGUACAAGUUUUUUGCUCGUCUUAAAA [Zipper 23 - 13] (puzzle: Sensor for hsa-mir-208a)	lower bin
GGCAGACAUGAGGAUCACCCAUGUCGGCCGUUAGGAGGAUAUCGGUGAUAUCUGUCUCGCCGAGAAGGUUUAAUUA [Onaterleza] (puzzle: Same State 1)	lower bin
UUUAGUUGCGGGCAGGAUAUGUAUUAAAGUACAUGAGGAUCACCCAUGUGCGGGUAUAACACCCGACAGAAGGGCCAAUCGCGAC [Laonerce - 1] (puzzle: Same State 2)	upper bin
UCAAGCGUUUGGCUCGUCUUAUGUUUGGUACAUGAGGAUCACCCAUGUUAUGUACGAUCCAGUUAGAUGGUAUUUUG [JR_SHM208A_Sub037] (puzzle: Sensor for hsa-mir-208a)	upper bin
AUAAAACAUGAGGAUCACCCAUGUCAACAAAGUCGAGGAUAUGGGCAAAUAAAAGAAUAACCAGAAGGCGAAUAAU [salish99_ss1_r3_053] (puzzle: Same State 1)	upper bin
AGUCCAGCCUGAGCUGGACAAAAGCAUGUACAUGAGGAUCACCCAUGUUCAUGUACAAGCUUUUUGCUCGUCUAAAA [Mat - hsa-mir-208a - Mod of JL - 50] (puzzle: Sensor for hsa-mir-208a)	lower bin
GAGUGACAUGAGGAUCACCCAUGUAGAAUAGAACAAGGAUAUGUGGAAGGCGGAGGAGAGACAGAAGGUGUUGGAG [JR_SS1_Sub056] (puzzle: Same State 1)	middle bin
CAUAAUAAAACGGAGGAUAUGCUACCCUUCACAUGAGGAUCACCCAUGUUACCCUCUUAUUUUCAGUAGAAGGCCGAUACAUAAC [Delilah] (puzzle: Same State 2)	middle bin
AACAAUUUAUCUGAGGAUAUCAUGAAAUAAACAUGAGGAUCACCCAUGUGCAGGAAAACUGCAUAUGAGAAGGCAGAUAGAUUGA [salish99_ss2_r3_023] (puzzle: Same State 2)	upper bin

====

Tested on: MS2 coat protein
protocol_details: apparent KD of MS2 coat protein; designed switch direction (-1 OFF switch, 1 ON switch): -1; higher = weaker reporter binding
test_context: input ligand: none
measured_property: apparent KD of MS2 coat protein

sequence_data	measured_property	reported_result
CUAAAUCAUGUAGGAUAUGCGUGGCGAAGCUAUGCAGAAGGACAUGAGGAUCACCCAUGUGCUUCCGUCUGAGAACAGACGGAA [Mat - Exclusion NG 1 - Mod of JL - D26] (Eterna round: R96, puzzle: Exclusion NG 1)	apparent KD of MS2 coat protein	251 nM
UCAAAAUAGUCAGGAUAUGCAGAUUCAGCGUCCGCAGAAGGGACAGUGGGCUGGUCCGACACAUGAGGAUCACCCAUGUAAAAG [Teerreanor] (Eterna round: R96, puzzle: Exclusion NG 1)	apparent KD of MS2 coat protein	109 nM
GUGACCAUAGGAUAUACAUGAGGAUCACCCAUGUGCAGGUCGGAAGACCCGCGGUCAUGUAGAAGGAUGUAAUU [EX3 A.23] (Eterna round: R97, puzzle: Exclusion 3)	apparent KD of MS2 coat protein	16.2 nM
AUAAAAUGCCAAGGAUAUCGGAAAGGAAGUGUACGAGAAGGUGGAGAUCCUAUACAUGAGGAUCACCCAUGUAUCAAGCUUGGG [PowerStrip EXNG 1.10] (Eterna round: R96, puzzle: Exclusion NG 1)	apparent KD of MS2 coat protein	760 nM
UCGAAAUCUAACAAGCCAUACAUGAGGAUCACCCAUGUGUUCGUCAUAGCGAUCCGACAUGAUGCUCGUCGAAAUAC [Eternabot (L2) Solution 48] (Eterna round: R97, puzzle: Sensor, turn-off variant 1)	apparent KD of MS2 coat protein	745 nM
AUCCUGAGGCUUUGCUUUAGGCGUACAUGAGGAUCACCCAUGUAGGAUAUGGUAGGCUUUGCUUACCAGAAGGACAUUAUGAUC [JL EXNG3 1.19] (Eterna round: R96, puzzle: Exclusion NG 3)	apparent KD of MS2 coat protein	43 nM
UUGUUCUGAGGAUAUACAUGAGGAUCACCCAUGUGUUUCUGCUUGGAGACUAGCGAAUGUAGAAGGCUGUUCUC [salish99_ex3_r4_021] (Eterna round: R97, puzzle: Exclusion 3)	apparent KD of MS2 coat protein	14.2 nM
AAACAAGCAACGAGAUCCCACAUGAGGAUCACCCAUGUCAACUGAAGUUUUAAAUCUUCAGGCUCGUCUUAUAACAA [S_tov1_V1.1] (Eterna round: R97, puzzle: Sensor, turn-off variant 1)	apparent KD of MS2 coat protein	34.8 nM
GCGCCAUCGUGAGAUGGCGUUUCGACAUGAGGAUCACCCAUGUAGGAUAUCGAUUGCUUUGCAGUCGAGAAGGGCGUGAUAAGU [JL ENG3 3.72] (Eterna round: R96, puzzle: Exclusion NG 3)	apparent KD of MS2 coat protein	98.2 nM
UACAUGAGGAUCACCCAUGUUUUGUCGUGUAUGGUAUUUAUCUAGGAUAUCAAGUUAUUUGUUUAUGAGAAGGAGAAUAUUAAU [JMF's solution 33] (Eterna round: R96, puzzle: Exclusion NG 3)	apparent KD of MS2 coat protein	37.1 nM
AGGGAGCGAGGAUAUACAGAGUAGGAAACCACUCCCUCAGUACAUGAGGAUCACCCAUGUAGAAGGCGCCCGAA [EX2 A.8] (Eterna round: R97, puzzle: Exclusion 2)	apparent KD of MS2 coat protein	31.5 nM
ACAUGAGGAUCACCCAUGUGACCACAAUGGCUGAUGUAAAGACAGGAUAUGUGUGAAUAUCUAACACAGAAGGGUCUUGACUGG [Deportation 57 - Jieux - Exclusion NG 3] (Eterna round: R96, puzzle: Exclusion NG 3)	apparent KD of MS2 coat protein	47.8 nM
GGUCCUGAUGAUUUCCUAGACAUGAGGAUCACCCAUGUUUAUUUAUUUUGUUUUUAGCUUUUUGGUCGUCAAUAAUA [Mod-Hoo-honey-4] (Eterna round: R97, puzzle: Sensor, turn-off variant 1)	apparent KD of MS2 coat protein	99.6 nM
UCAGGUGCAGGAUAUACAUGAGGAUCACCCAUGUGAUUAGCAGUCCUCGGACUGCAAUGUAGAAGGGCACCUGA [E3/2-D2] (Eterna round: R97, puzzle: Exclusion 3)	apparent KD of MS2 coat protein	346 nM
UAUUAAACAAGCAGAUCCCACAUGAGGAUCACCCAUGUGCUCGUCUUAUAAGGUACUGUGACGAAAGUCACGGUACC [Sensor 3, v1 - 91 v11] (Eterna round: R97, puzzle: Sensor, turn-off variant 1)	apparent KD of MS2 coat protein	62.1 nM

====

sequences and their reported apparent KD of K4 kissing-loop reporter
Test system: K4 kissing-loop RNA reporter;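 also: bound reporter read as fluorescence of individual clusters on recovered sequencing chips by microscopy, with normalized cluster intensities fitted with a binding model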
protocol_details: apparent KD of K4 kissing-loop reporter; higher = weaker reporter binding
test_context: Eterna round: R107; input ligand: tryptophan 2.4 mM

sequence_data	unit_abbreviation	apparent KD of K4 kissing-loop reporter
UAAGAGGACCACUGCGAGAGUCCUCGAAUACGAGGACCGGUACGGCCGCCACUCGAUAAUUUGCAGUGAUGUUGCAAGUAAGAAU [BrourdMod 6 - Jieux - Same State Tryptophan A]	µM	0.0486
AACCGAGGUAAUCCACAAAGAUAACAUGAUACCAGAUAUAUAAAUAUCCCUUGGCAGCAUGGCAUGAGUGAUGUUCAUGUGUCUU [KL-SSTheo-A10]	µM	0.356
GAAUAAUAACAUGAGUGAUGUUCAUGUAAACGAGGACCGGUACGGCCGCCACUCGAACCUCAUGUAAGCCGUACCAAUAACAAUA [KL-XTryp-A4 #analogue]	µM	0.12
ACUGAAAGAUCUGAUACCAGACUUUUUGUAUUUAUUAAAACUAGUGAUGUUAGUUUAUCUGUCCCUUGGCAGCAGUUUCUACAGA [JR_Nu_ExcTheophyB_Sub023]	µM	0.117
